experiment: recombinant barcode read abundance after kanamycin selection (control-corrected) (log10(CPM+1)); higher = more efficient recombination; sequences stand for … in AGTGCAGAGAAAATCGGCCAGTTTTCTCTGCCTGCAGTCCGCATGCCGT…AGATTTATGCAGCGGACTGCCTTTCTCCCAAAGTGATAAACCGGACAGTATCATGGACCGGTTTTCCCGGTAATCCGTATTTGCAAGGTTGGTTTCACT; site = the 11-nt target;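 also: IS621 recombinase and bridge RNA in Escherichia coli cells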
Tag: met if measured recombinant barcode read abundance (log10) is not below 0.06, not met if it is.

Please check the record AGAAGATCTTGGGTTCTAACCTGTTGCCT (site AGAAGATCTAG) and state if its recombinant barcode read abundance (log10) is at or above 0.06.
met

Check this sequence for recombinant barcode read abundance (log10) at or above 0.06: CGGTGTCCTTGGGTTCTAACCTGTTGCTA (site CGGAGTCCTTA)
met

Identify whether the reported recombinant barcode read abundance (log10) of the following sequence is 0.06 or greater: CATTATTCTTGGGTTCTAACCTGTTGCCT (site CATTATTCTAG)
not met

Tell me whether recombinant barcode read abundance (log10) is at least 0.06 here: TACGCTCCTTGGGTTCTAACCTGTTGCTT (site TACGCTCCTAA)
met

Textbook exercise: given the entry CAGATTCCTTGGGTTCTAACCTGTTGCCT (site CAGATTCCTAG) , state whether its recombinant barcode read abundance (log10) is greater than or equal to 0.06.
met

Reference source: the supplement of paper PMC11208160
